# protocol_description: Toxicity liver stage against HepG2, at 10uM
# Format: cell-based
# Design: test concentration 10 uM, cell line HepG2-A16-CD81EGFP
# experimental_setup: human, HepG2-A16-CD81EGFP cells; read-out: INHIBITION
In this section we review reported cytotoxicity at 10 µM values for a set of compounds.
Return type: number; implicit unit %.

Record excerpt, results attached:
{"compound": "Cn1c(Cn2cccn2)nnc1C1CCN(Cc2cccnc2N)CC1", "measurement_label": "cytotoxicity at 10 µM", "measured": -9.12}
{"compound": "O=C(c1c[nH]c(=O)[nH]c1=O)N1CCCC(c2cnccn2)C1 (centres undefined)", "measurement_label": "cytotoxicity at 10 µM", "measured": -3.58}
{"compound": "c1cnc(N2CCC3(CCN(CC4CCOC4)C3)CC2)nc1 (centres undefined)", "measurement_label": "cytotoxicity at 10 µM", "measured": -0.877}

Given the compound CN(C)S(=O)(=O)N1CCC(c2ccncn2)CC1 , what is its reported cytotoxicity at 10 µM?
-20.5

###

# protocol_description: Toxicity liver stage against HepG2, at 10uM
# Format: cell-based
# Parameters: test concentration 10 uM, cell line HepG2-A16-CD81EGFP
# experimental_setup: human, HepG2-A16-CD81EGFP cells; read-out: INHIBITION
measurement_label: cytotoxicity at 10 µM (%)
Return type: number; implicit unit %.

{"smiles": "O=C(NC1CC1)[C@H]1CC[C@@H]2[C@@H](CCN2Cc2ccsc2)O1", "measured": 1.42}
{"smiles": "COc1ccc(CNc2nncs2)cc1F", "measured": -4.23}
{"smiles": "CCN(CC)CCn1cnc(-c2ccccc2)c1-c1cnn(CC)c1", "measured": 3.37}

We now examine a further molecule.
Given the molecule Cc1ccc(-c2nc(CN3CCc4nn(C)c(=O)cc4C3)no2)cc1 , what is its reported cytotoxicity at 10 µM?
-8.38

###

In this section we review reported cytotoxicity at 10 µM values for a set of molecules.
# protocol_description: Toxicity liver stage against HepG2, at 10uM
# Assay type: cell-based
# Design: test concentration 10 uM, cell line HepG2-A16-CD81EGFP
# experimental_setup: human, HepG2-A16-CD81EGFP cells; read-out: INHIBITION
Return type: number; implicit unit %.

Given the molecule Cc1ccc(NC(=O)N2C[C@@H]3CC[C@H]2CN(Cc2cscn2)C3)cc1 , what is its reported cytotoxicity at 10 µM?
-7.47

For O=C(N[C@H]1CN(C2CCOCC2)C[C@@H]1C1CC1)c1ccon1 then?
5.21

For COc1ncccc1NC(=O)C1CCOCC1 then?
-29.8

For O=C(C1CCCCC1)N1CCCC([C@@H]2C[C@H](C(F)F)n3ncnc3N2)C1 (some centres undefined) then?
1.4

###

# protocol_description: Toxicity liver stage against HepG2, at 10uM
# Assay type: cell-based
# Parameters: test concentration 10 uM, cell line HepG2-A16-CD81EGFP
# experimental_setup: human, HepG2-A16-CD81EGFP cells; read-out: INHIBITION
measurement_label: cytotoxicity at 10 µM (%)
Return type: number; implicit unit %.

Record excerpt, results attached:
{"compound": "O=C(NCc1cccnc1)NC1CCCN(c2ncccn2)C1 (centres undefined)", "cytotoxicity at 10 µM [%]": -2.5}
{"compound": "CC1CCCN(Cc2cccc(C(=O)Nc3nccs3)c2)C1 (centres undefined)", "cytotoxicity at 10 µM [%]": -5.68}
{"compound": "CC(=O)N1CCCN(C(=O)NCCCN(C)S(C)(=O)=O)CC1", "cytotoxicity at 10 µM [%]": -2.44}
{"compound": "Cc1ccc(C2CN(c3nnc(C(F)F)s3)CCO2)c(C)c1 (centres undefined)", "cytotoxicity at 10 µM [%]": 3.28}
{"compound": "CS(=O)(=O)c1cnc(N2CCCC2)nc1C1CCN(C(=O)C2CC2)CC1", "cytotoxicity at 10 µM [%]": 1.45}
{"compound": "O=C(CN1CCCCCC1)NCc1ccc2[nH]c(=O)[nH]c2c1", "cytotoxicity at 10 µM [%]": -2.86}
{"compound": "CC(C)c1[nH]c2ncccc2c1CN1CCN(S(=O)(=O)N(C)C)CC1", "cytotoxicity at 10 µM [%]": 3.33}
{"compound": "CO[C@H]1CCN(C(=O)Cc2ccccn2)[C@H]1Cc1ccncc1", "cytotoxicity at 10 µM [%]": 2.26}

Given the compound COc1ccccc1-c1ccnc2nc(N3CCCCC3)[nH]c(=O)c12 , what is its reported cytotoxicity at 10 µM?
7.36
